Tested on: Cynomolgus monkey
test-description: AUC (0 to infinity) in cynomolgus monkey at 1 mg/kg, iv
Type: ADME, organism-based, Macaca fascicularis, Plasma
Set-up: time infinity, dose 1 mg/kg, route intravenous
particulars: in vivo
readout: AUC (ng·h/mL)

compound	units-symbol	test-value
CC(C)(C)CCN1C(=O)C(C2=NS(=O)(=O)c3cc(NS(C)(=O)=O)ccc3N2)=C(O)C2CCCN21 (stereo unspecified)	ng·h/mL	5180

====

Form field: remaining at 1 h, 1 µM (one value per entry).
test-description: Metabolic stability in cynomolgus monkey liver microsomes assessed as compound remaining at 1 uM after 60 mins
Type: ADME, Macaca fascicularis, Microsome
particulars: read-out: Stability
readout: remaining at 1 h, 1 µM (%)

compound	readout	units-symbol	test-value
CS(=O)(=O)Nc1ccc2c(c1)S(=O)(=O)N=C(C1=C(O)C3CCCN3N(Cc3ccc(F)cc3)C1=O)N2 (configuration not stated)	remaining at 1 h, 1 µM	%	94
CS(=O)(=O)Nc1ccc2c(c1)S(=O)(=O)N=C(C1=C(O)C3CCCCN3N(Cc3ccc(F)cc3)C1=O)N2 (configuration not stated)	remaining at 1 h, 1 µM	%	100
